The origin of these recorded values is patent US11795170B2.

biological target: isolated recombinant JAK2 kinase domain (Homo sapiens, UniProt O60674); construct: The activity of the isolated recombinant JAK1 and JAK2 kinase domain was measured; assay: JAK2 enzyme assay (Caliper LabChip, peptide phosphorylation); details: 0.2 nM JAK2, 25 μM ATP, 22° C., 30 minutes; Morrison tight binding model
Sequence (O60674 849-1124): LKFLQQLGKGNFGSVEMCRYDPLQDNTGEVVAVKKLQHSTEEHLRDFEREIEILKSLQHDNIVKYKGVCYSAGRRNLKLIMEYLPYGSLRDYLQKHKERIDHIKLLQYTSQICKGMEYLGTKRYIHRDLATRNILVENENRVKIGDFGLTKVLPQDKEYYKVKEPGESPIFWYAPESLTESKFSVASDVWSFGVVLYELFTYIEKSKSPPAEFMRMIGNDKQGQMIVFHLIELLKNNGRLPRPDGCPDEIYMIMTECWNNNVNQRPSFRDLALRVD
Attribute measured: Ki (nM)

CSc1ccc(OC(F)F)c(-c2n[nH]cc2NC(=O)c2cnc3cccnn23)c1	0.05
Cn1cc(NC(=O)c2cnc3cccnn23)c(-c2cc(Cl)ccc2OC(F)F)n1	0.14
C#Cc1ccc2ncc(C(=O)Nc3c[nH]nc3-c3cc(Cl)ccc3OC(F)F)n2n1	0.076
O=C(Nc1cn(CC(=O)N2CCC(N3CCOCC3)CC2)nc1-c1cc(Cl)ccc1OC(F)F)c1cnc2cccnn12	1.2
CC(C)Sc1ccc(OC(F)F)c(-c2n[nH]cc2NC(=O)c2cnc3cccnn23)c1	0.26

(A) CN(C1CCN(C(=O)Cn2cc(NC(=O)c3cnc4cccnn34)c(-c3cc(Cl)ccc3OC(F)F)n2)CC1)C1COC1
(B) N#CC1(CNC2CCN(C(=O)Cn3cc(NC(=O)c4cnc5cccnn45)c(-c4cc(Cl)ccc4OC(F)F)n3)CC2)CC1
Query string: Hi! Which is lower in terms of Ki, the first one A or the second one B ? Please indicate the selected item by its label.
Result string: A

(I) O=C(Nc1c[nH]nc1-c1cc(Cl)ccc1OC(F)F)c1cnc2ccc(Cl)nn12
(II) O=C(Nc1c[nH]nc1-c1cc(SC2CC2)ccc1OC(F)F)c1cnc2cccnn12
Query string: Hi! Which is lower in terms of Ki, the first one I or the second one II ? Please indicate the selected item by its label.
Result string: II
